biological target: recombinant Human β-Amyloid Peptide (1-42) (Homo sapiens); construct: recombinant Human β-Amyloid Peptide (1-42); purchased BioLegend 843801; experiment: Mass spectrometry (MS) binding assay; settings: 22 pmol/μL peptide, 1100 pmol/μL compound (50×); direct infusion Q-TOF MS; stoichiometry of the binding
MEASURED QUANTITY: Number of molecules bound to Aβ42

// query Item `O=C(NC1CCNCC1)[C@@H]1C[C@H](S(=O)(=O)O)CN1` : provide Number of molecules bound to Aβ42
// result [+4]

// query Item O=C(O)C1CCC(S(=O)(=O)O)C1 (stereo not shown) : provide Number of molecules bound to Aβ42
// result [+3]

// query Item COC(=O)C1CCC(S(=O)(=O)O)C1 (stereo not shown) : provide Number of molecules bound to Aβ42
// result [+3]

// query Item N[C@@H](Cc1ccc(O)cc1)C(=O)NC1CCC(S(=O)(=O)O)C1 (stereo partly shown) : provide Number of molecules bound to Aβ42
// result [+3]

----------
biological target: recombinant Human β-Amyloid Peptide (1-42) (Homo sapiens, UniProt P05067); construct: recombinant Human β-Amyloid Peptide (1-42); purchased BioLegend 843801; experiment: Mass spectrometry (MS) binding assay; details: semiquantitative evaluation of the binding compared to a blank; 22 pmol/μL peptide, 1100 pmol/μL compound (50×)
Sequence (P05067 672-713 limits assumed): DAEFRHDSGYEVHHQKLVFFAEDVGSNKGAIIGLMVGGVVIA
MEASURED QUANTITY: Semiquantitative Estimation

Solved cases below.
// query Item O=C(O)C1CCC(S(=O)(=O)O)C1 (stereo not shown) [Compound 2029, 3-Sulfocyclopentane-1-carboxylic acid] : provide Semiquantitative Estimation
// result [+++]

// query Item C[C@H](NC(=O)[C@@H]1C[C@H](S(=O)(=O)O)CN1)C(=O)O [Compound 2061] : provide Semiquantitative Estimation
// result [++++]

// query Item O=C(NCc1ccccc1)C1CCC(S(=O)(=O)O)C1 (stereo not shown) [Compound 2030] : provide Semiquantitative Estimation
// result [+]

// query Item CS(=O)(=O)CC[C@H](N)C(=O)NC1CCC(S(=O)(=O)O)C1 (stereo partly shown) [Compound 2014] : provide Semiquantitative Estimation
// result [+++]

// query Item O=C(NC1CCNCC1)[C@@H]1C[C@H](S(=O)(=O)O)CN1 [Compound 2077] : provide Semiquantitative Estimation
// result [++++]

// query Item O=C(NCc1ccccc1)[C@@H]1C[C@H](S(=O)(=O)O)CN1 [Compound 2055] : provide Semiquantitative Estimation
// result [++++]

// query Item O=C(N[C@@H](CO)C(=O)O)C1CCC(S(=O)(=O)O)C1 (stereo partly shown) [Compound 2037] : provide Semiquantitative Estimation
// result [+]

// query Item NC1CCC(S(=O)(=O)O)C1 (stereo not shown) [Compound 2005, 3-aminocyclopentane-1-sulfonic acid] : provide Semiquantitative Estimation
// result [+]

// query Item CS(=O)(=O)CC[C@H](NC(=O)OCc1ccccc1)C(=O)NC1CCC(S(=O)(=O)O)C1 (stereo partly shown) [Compound 2026] : provide Semiquantitative Estimation
// result [++]

// query Item CC(C)[C@H](N)C(=O)NC1CCC(S(=O)(=O)O)C1 (stereo partly shown) [Compound 2010] : provide Semiquantitative Estimation
// result [++]

New cases:
// query Item CCN(CC)C(=O)[C@@H]1C[C@@H](S(=O)(=O)O)CN1 [Compound 2085] : provide Semiquantitative Estimation
// result [++++]

// query Item O=C([C@@H]1C[C@@H](S(=O)(=O)O)CN1)N(CCO)CCO [Compound 2087] : provide Semiquantitative Estimation
// result [++++]

// query Item N[C@@H](CO)C(=O)NC1CCC(S(=O)(=O)O)C1 (stereo partly shown) [Compound 2012] : provide Semiquantitative Estimation
// result [++++]

// query Item COC(=O)C1CCC(S(=O)(=O)O)C1 (stereo not shown) [Compound 2028] : provide Semiquantitative Estimation
// result [+++]

// query Item O=C([C@@H]1C[C@H](S(=O)(=O)O)CN1)N(CCO)CCO [Compound 2059] : provide Semiquantitative Estimation
// result [++]

// query Item CC(C)C[C@H](N)C(=O)NC1CCC(S(=O)(=O)O)C1 (stereo partly shown) [Compound 2011] : provide Semiquantitative Estimation
// result [+]

// query Item N[C@@H](Cc1ccc(O)cc1)C(=O)NC1CCC(S(=O)(=O)O)C1 (stereo partly shown) [Compound 2015] : provide Semiquantitative Estimation
// result [+++]

// query Item O=C(NCc1ccccc1)[C@@H]1C[C@@H](S(=O)(=O)O)CN1 [Compound 2083] : provide Semiquantitative Estimation
// result [++]

// data source = patent US10590070B2
